system: Fatty-acid amide hydrolase 1 (Rattus norvegicus)
Sequence (P97612 whole entry): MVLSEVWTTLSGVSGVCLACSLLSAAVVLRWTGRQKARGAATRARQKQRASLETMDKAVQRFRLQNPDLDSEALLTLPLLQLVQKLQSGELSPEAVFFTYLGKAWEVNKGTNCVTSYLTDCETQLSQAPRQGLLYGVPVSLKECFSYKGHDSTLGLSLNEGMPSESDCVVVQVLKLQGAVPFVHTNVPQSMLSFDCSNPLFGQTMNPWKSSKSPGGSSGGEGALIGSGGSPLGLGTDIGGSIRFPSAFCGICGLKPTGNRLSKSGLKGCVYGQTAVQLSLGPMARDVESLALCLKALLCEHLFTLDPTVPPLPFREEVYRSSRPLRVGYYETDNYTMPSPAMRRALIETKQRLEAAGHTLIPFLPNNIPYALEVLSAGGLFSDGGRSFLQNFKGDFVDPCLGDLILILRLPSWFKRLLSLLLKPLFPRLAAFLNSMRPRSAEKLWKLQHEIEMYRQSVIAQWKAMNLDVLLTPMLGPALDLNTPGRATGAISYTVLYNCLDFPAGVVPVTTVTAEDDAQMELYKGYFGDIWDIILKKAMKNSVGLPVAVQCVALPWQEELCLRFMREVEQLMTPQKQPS
pIC50: −log10 of the molar value.
Let's look at some pIC50 data for Fatty-acid amide hydrolase 1 (Rattus norvegicus) that I collected from the literature.
Would you please tag the item y when its pIC50 is 8 or above, and n when it is below?

# compound smiles, category
data = [
    ("COC(=O)c1cccc(-c2noc(C(=O)CCCCCCc3ccccc3)n2)n1", "y"),
    ("OB(O)c1ccc(F)cc1", "n"),
    ("Cc1ccc2nc(-c3ccc(NC(=O)C4CCN(S(=O)(=O)c5cccs5)CC4)cc3)sc2c1", "n"),
    ("O=C(Nc1cccnn1)N1CCN(c2nccc(-c3cc(F)cc(F)c3)n2)CC1", "y"),
    ("CCCCCCCCc1ccc(OCC(=O)Cn2nnc3ncccc32)cc1", "n"),
    ("O=C(Nc1ccncn1)N1CC2(CCN(Cc3cccc(Oc4ccc(Cl)cc4)c3)CC2)C1", "n"),
    ("CCCCCCCCc1ccc(OCC(=O)Cn2ccnc2)cc1", "n"),
    ("CCCCCCCCc1ccc(OCC(=O)Cn2ccc3ncccc32)cc1", "n"),
    ("O=C(Nc1cccnn1)N1CCN(c2nccc(-c3cccc(F)c3F)n2)CC1", "y"),
]
